System: OVCAR-3 ovarian
Assay: NCI tumour cell line growth inhibition, 48 h
Each record here notes measured TGI.
Number in µM, nothing else.

CN1C(=O)C(=O)N2c3ccc(Cl)cc3C3(c4ccccc4)N=CC12O3 (centres undefined) = 14.8

--- query ---
Challenge: Give the value of TGI reported for the following: O=C1C(Br)=C(Br)C(=O)c2ccc(=O)ccc21
Response given: 41.8

* * *

Each record here notes measured GI50.
Tested on: OVCAR-3 ovarian
Test: NCI tumour cell line growth inhibition, 48 h

COc1ccc2ncnc(Nc3ccc(OCc4ccccc4)cc3)c2c1 = 7.08 µM

Challenge: Give the value of GI50 reported for the following: O=C(NC1CCCCC1)NS(=O)(=O)c1ccc(N2N=C3c4ccccc4CC3C2c2ccc(Cl)cc2)cc1 (stereo not drawn)
Response given: 18.4 µM

Challenge: Give the value of GI50 reported for the following: Fc1cc(-c2nnc3n2N=C(c2ccc(Cl)cc2)CS3)c(Cl)cc1Cl
Response given: 13.6 µM
